Overview of reported pIC50 across a group of compounds:
tested on: human small cell lung cancer cell lines (SCLC-21H); assay: MTS cytotoxicity on SCLC-21H cells; format: cell-based; settings: read-out: Cytotoxicity on cell line SCLC (IC50)
pIC50: −log10 of the molar value.

compound | qualifier-sign | pIC50
Cc1noc(C)c1-c1cc(F)c(Nc2ccccc2C(=O)O)c(F)c1 [Compound 38] | = | 5.38
Cc1n[nH]c(C)c1-c1cc(Cl)c(Nc2ccccc2C(=O)NO)c(Cl)c1 [Compound 32] | = | 5.68
Cc1n[nH]cc1-c1cc(Cl)c(Nc2ccccc2C(=O)NO)c(Cl)c1 [Compound 31] | = | 5.14
Cc1noc(C)c1-c1cc(F)c(Nc2ccccc2C(=O)NO)c(F)c1 [Compound 39] | = | 5.14
CCN(CC)CCNC(=O)c1ccccc1Nc1c(Cl)cc(-c2cn[nH]c2)cc1Cl [Compound 81] | = | 5.04
Cc1noc(C)c1-c1cc(Cl)c(Nc2ccccc2C(=O)NCCCN2CCOCC2)c(Cl)c1 [Compound 82] | = | 5.00
CCN(CC)CCNC(=O)c1ccccc1Nc1c(Cl)cc(-c2c(C)noc2C)cc1Cl [Compound 79] | > | 6.00
CCN(CC)CCNC(=O)c1cccnc1Nc1c(Cl)cc(-c2c(C)noc2C)cc1Cl [Compound 78] | = | 5.29
O=C(NO)c1ccccc1Nc1c(Cl)cc(-c2cn[nH]c2)cc1Cl [Compound 33] | = | 5.15
Cc1noc(C)c1-c1cc(Cl)c(Nc2ccccc2C(=O)NCCN2CCN(C)CC2)c(Cl)c1 [Compound 80] | > | 6.00

====

tested on: pancreatic cancer cell Line (KP3); assay: MTS cytotoxicity on KP3 cells; assay type: cell-based
endpoint-label: IC50

smiles-record | endpoint-label | readout-value
CCN(CC)CCNC(=O)c1ccccc1Nc1c(Cl)cc(-c2cn[nH]c2)cc1Cl | IC50 | < 1 µM
Cc1noc(C)c1-c1cc(F)c(Nc2ccccc2C(=O)O)c(F)c1 | IC50 | < 1 µM
Cc1noc(C)c1-c1cc(Cl)c(Nc2ccccc2C(=O)NCCCN2CCOCC2)c(Cl)c1 | IC50 | < 1 µM

====

biological target: FTO (Homo sapiens (Human)); experiment: FTO enzyme inhibition (m6A dsDNA substrate, DpnII digestion, gel readout); assay type: biochemical; conditions: in vitro inhibition rate on FTO, compound at 50 μM

smiles-record | Inhibition rate [%]
O=C(O)c1ccccc1Nc1c(F)cc(-c2ccncc2)cc1F | 31
Cc1n[nH]cc1-c1cc(Cl)c(Nc2ccccc2C(=O)NO)c(Cl)c1 | 70
O=C(O)c1cc(F)ccc1Nc1c(Cl)cc(-c2ccncc2)cc1Cl | 81
Cc1noc(C)c1-c1cc(Cl)c(Nc2ccccc2C(=O)NCCN2CCN(C)CC2)c(Cl)c1 | 29
O=C(O)c1ccccc1Nc1c(Cl)cc(N2CCOCC2)cc1Cl | 100
O=C(O)c1ccccc1Nc1ccc(-c2ccncc2)cc1O | 90
Cc1noc(C)c1-c1cc(Cl)c(Nc2ccc(N)cc2C(=O)O)c(Cl)c1 | 58
Cc1cc(-c2ccncc2)cc(C)c1Nc1ccccc1C(=O)O | 100
Cc1noc(C)c1-c1cc(Cl)c(Nc2ncccc2C(=O)NO)c(Cl)c1 | 35

====

tested on: human bone marrow rhabdomyosarcoma cell line (RH30); test: MTS cytotoxicity on RH30 cells; format: cell-based
pIC50: −log10 of the molar value.
pIC50 values for the compounds below.

smiles-record | pIC50
O=C(NO)c1ccccc1Nc1c(Cl)cc(-c2cn[nH]c2)cc1Cl | 5.39
CCN(CC)CCNC(=O)c1ccccc1Nc1c(Cl)cc(-c2cn[nH]c2)cc1Cl | 5.89
Cc1n[nH]c(C)c1-c1cc(Cl)c(Nc2ccccc2C(=O)NO)c(Cl)c1 | 5.28
Cc1noc(C)c1-c1cc(F)c(Nc2ccccc2C(=O)NO)c(F)c1 | 5.49

====

Each record here notes measured inhibition at 50 µM.
molecular target: FTO (Homo sapiens (Human), UniProt Q9C0B1); assay: FTO enzyme inhibition (m6A dsDNA substrate, DpnII digestion, gel readout); format: biochemical; settings: read-out: Inhibition rate
Sequence (Q9C0B1 whole entry): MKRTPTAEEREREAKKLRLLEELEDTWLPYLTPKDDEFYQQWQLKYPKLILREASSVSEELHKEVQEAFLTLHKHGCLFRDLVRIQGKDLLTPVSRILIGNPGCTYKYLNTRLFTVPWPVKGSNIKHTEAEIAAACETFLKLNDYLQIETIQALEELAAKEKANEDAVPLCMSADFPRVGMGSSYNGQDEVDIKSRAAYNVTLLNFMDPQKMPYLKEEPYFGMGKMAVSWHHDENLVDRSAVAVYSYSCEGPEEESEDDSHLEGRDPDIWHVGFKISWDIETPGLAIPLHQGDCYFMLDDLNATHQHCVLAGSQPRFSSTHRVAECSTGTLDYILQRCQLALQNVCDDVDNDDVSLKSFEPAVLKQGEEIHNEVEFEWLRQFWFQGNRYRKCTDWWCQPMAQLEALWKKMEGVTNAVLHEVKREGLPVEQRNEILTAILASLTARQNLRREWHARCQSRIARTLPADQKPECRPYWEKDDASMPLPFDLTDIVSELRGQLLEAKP

smiles-record | inhibition at 50 µM / %
CCN(CC)CCOC(=O)c1ccccc1Nc1c(Cl)cc(-c2c(C)noc2C)cc1Cl | 31
Cc1noc(C)c1-c1cc(Cl)c(Nc2ccccc2C(=O)NO)c(Cl)c1 | 46
Cc1noc(C)c1-c1cc(Cl)c(Nc2ccccc2C(=O)OCc2oc(=O)oc2C)c(Cl)c1 | 34
